Each entry below lists one item and its recorded growth value.
Tested on: COLO 205 colon
Assay: NCI-60 one-dose screen, 48 h (100 = growth as untreated, 0 = no growth, -100 = all killed)
Conditions: 10 µM unless noted
This is part of a sample that, as a whole, favours compounds with a hit. Of some 83,000 tested, about 20% had one in any assay.

- compound: "CN1CCN(CCCOc2cccc3nc(Nc4cc(Cl)cc(Cl)c4)ccc23)CC1"
  growth (%): -67.4
- compound: "Oc1cccc2ccc(N/N=C/c3cc(CN4CCOCC4)c(O)c4ncccc34)nc12"
  growth (%): 12.2
- compound: "CC(=O)OCCC/C(=C/c1cc2ccccc2c2ccccc12)[N+](=O)[O-]"
  growth (%): -85.9
- compound: "OCCN1CCN(c2nc(Nc3ccc(-c4nc5ccccc5[nH]4)cc3)c3cn[nH]c3n2)CC1"
  growth (%): -81.4
- compound: "O=C1C=CC(=O)N1c1ccc2c(c1)Cc1cc(F)ccc1-2"
  growth (%): 94
- compound: "CC[N+](CC)=c1sc2c(s1)C(c1ccc(Cl)cc1)Oc1ccc(Cl)cc1-2 (stereo not drawn)"
  growth (%): -69.6
- compound: "CCN(CC)CCCCNc1c2ccc(Cl)cc2nc2ccc(OC)cc12"
  growth (%): -52
- compound: "CCCSc1ccc2nc(NC(=O)OC)[nH]c2c1"
  growth (%): 5.29
